For each of the compounds below, state its Activity.
# Test system: W4 (Rattus norvegicus)
# procedure_details: Activation of alpha secretase assessed by sAPPalpha secretion in W4 cells relative to control
# Parameters: concentration or dose not given beside the values
Answers are plain numbers, in %.

>>> recorded_measurement("CCCCCCCC(=O)OCC1(CO)C/C(=C\\CC(CC(C)C)CC(C)C)C(=O)O1 (stereo not given)")
141
>>> recorded_measurement("CC(C)CC(C/C=C1/CC(CO)(COC(=O)C(C)(C)C)OC1=O)CC(C)C (stereo not given)")
177
>>> recorded_measurement("CC(C)CC(C/C=C1/CC(CO)(COC(=O)c2ccccc2)OC1=O)CC(C)C (stereo not given)")
157
>>> recorded_measurement("CCCCCCCC(=O)OCC1(CO)C/C(=C/CC(CC(C)C)CC(C)C)C(=O)O1 (stereo not given)")
158
>>> recorded_measurement("CCCC(=O)O[C@@H]1[C@@H](C)[C@@]2(O)[C@@H](C=C(CO)C[C@]3(O)C(=O)C(C)=C[C@@H]23)[C@@H]2C(C)(C)[C@]12OC(=O)CCC")
185
>>> recorded_measurement("CC(C)CC(C/C=C1/C[C@@](CO)(COC(=O)C(C)(C)C)OC1=O)CC(C)C")
209
>>> recorded_measurement("CC(C)CC(C/C=C1\\CC(CO)(COC(=O)C(C)(C)C)OC1=O)CC(C)C (stereo not given)")
133
>>> recorded_measurement("CC(C)CC(C/C=C1\\CC(CO)(COC(=O)CC(C(C)C)C(C)C)OC1=O)CC(C)C (stereo not given)")
225

Please look at the items below and tell me Activity for each one, in order.
1. CC(C)CC(C/C=C1\CC(CO)(COC(=O)c2ccccc2)OC1=O)CC(C)C (stereo not given)
2. CC(C)CC(C/C=C1/CC(/C=C/C(=O)OC(C)(C)C)(CO)OC1=O)CC(C)C (stereo not given)

[131, 200]
